EXPERIMENTAL PROTOCOL: method code SF-HPLC, from DOI: 10.1002/ps.2780400103
RECORDED ENDPOINT: logP
Please give only the number in your answer, with no unit.

Use these answered entries as a reference point.
CC(C)(C)C(COc1ccccc1)OC(=S)n1ccnc1 (stereo unspecified) : 4.27
CCCCCc1ccc(OCC(OC(=O)n2ccnc2)C(C)(C)C)cc1 (stereo unspecified) : 5.26
CCOc1ccc(OCC(OC(=S)n2ccnc2)C(C)(C)C)cc1 (stereo unspecified) : 4.58
CCOc1ccc(OCC(OC(=O)n2ccnc2)C(C)(C)C)cc1 (stereo unspecified) : 3.86
CC(C)(C)C(COc1ccc(Br)cc1)OC(=S)n1ccnc1 (stereo unspecified) : 5.11
CC(C)(C)C(COc1ccc(F)cc1)OC(=O)n1ccnc1 (stereo unspecified) : 3.68
CC(C)(C)C(COc1ccc(Br)cc1)OC(=O)n1ccnc1 (stereo unspecified) : 4.37
CSc1ccc(OCC(OC(=O)n2ccnc2)C(C)(C)C)cc1 (stereo unspecified) : 4.03

Task: I would be grateful if you could share the reported logP for COc1ccc(OCC(OC(=S)n2ccnc2)C(C)(C)C)cc1 (stereo unspecified) .
Result: 4.31

Task: I would be grateful if you could share the reported logP for CC(C)(C)C(COc1ccc(-c2ccccc2)cc1)OC(=O)n1ccnc1 (stereo unspecified) .
Result: 4.56

Task: I would be grateful if you could share the reported logP for CC(C)(C)C(COc1ccc(Cl)cc1)OC(=S)n1ccnc1 (stereo unspecified) .
Result: 4.96

---

EXPERIMENTAL PROTOCOL: method code SF-HPLC, from DOI: 10.1002/ps.2780400103
# logP >= 4 gives Met, anything below gives Not met

Worked cases, answers included:
COC(=O)c1ccc(OCC(OC(=S)n2ccnc2)C(C)(C)C)cc1 (stereo not drawn) : Met
CC(C)(C)c1ccc(OCC(OC(=O)n2ccnc2)C(C)(C)C)cc1 (stereo not drawn) : Met

Task: Is reported logP greater than or equal to 4 here: COc1ccc(OCC(OC(=O)n2ccnc2)C(C)(C)C)cc1 (stereo not drawn)
Result: Not met

Task: Is reported logP greater than or equal to 4 here: CCc1ccc(OCC(OC(=S)n2ccnc2)C(C)(C)C)cc1 (stereo not drawn)
Result: Met

---

EXPERIMENTAL PROTOCOL: method code SF-HPLC, from DOI: 10.1002/ps.2780400103
RECORDED ENDPOINT: logP

Use these answered entries as a reference point.
CC(C)(C)C(COc1ccc(C#N)cc1)OC(=O)n1ccnc1 (stereo not drawn) : 3.15
COC(=O)c1ccc(OCC(OC(=O)n2ccnc2)C(C)(C)C)cc1 (stereo not drawn) : 3.59

As a next step, examine the molecule that follows.
Task: I would be grateful if you could share the reported logP for CCCOc1ccc(OCC(OC(=O)n2ccnc2)C(C)(C)C)cc1 (stereo not drawn) .
Result: 4.1

---

EXPERIMENTAL PROTOCOL: method code SF-HPLC, from DOI: 10.1002/ps.2780400103
RECORDED ENDPOINT: logP
Please give only the number in your answer, with no unit.

Use these answered entries as a reference point.
CCCCOc1ccc(OCC(OC(=O)n2ccnc2)C(C)(C)C)cc1 (centres undefined) : 4.29
CC(C)c1ccc(OCC(OC(=S)n2ccnc2)C(C)(C)C)cc1 (centres undefined) : 5.21
CC(C)(C)C(COc1ccc(C(F)(F)F)cc1)OC(=O)n1ccnc1 (centres undefined) : 4.15
CC(C)(C)C(COc1ccc(S(C)(=O)=O)cc1)OC(=O)n1ccnc1 (centres undefined) : 2.59
CC(C)c1ccc(OCC(OC(=O)n2ccnc2)C(C)(C)C)cc1 (centres undefined) : 4.77
CC(C)(C)C(COc1ccc([N+](=O)[O-])cc1)OC(=O)n1ccnc1 (centres undefined) : 3.35
CC(C)Oc1ccc(OCC(OC(=O)n2ccnc2)C(C)(C)C)cc1 (centres undefined) : 4.08
CC(C)(C)C(COc1ccc(-c2ccccc2)cc1)OC(=S)n1ccnc1 (centres undefined) : 6.06
CC(C)(C)C(COc1ccc(I)cc1)OC(=O)n1ccnc1 (centres undefined) : 4.3
CC(C)(C)C(COc1ccc(F)cc1)OC(=S)n1ccnc1 (centres undefined) : 4.37

Task: I would be grateful if you could share the reported logP for CCCc1ccc(OCC(OC(=S)n2ccnc2)C(C)(C)C)cc1 (centres undefined) .
Result: 5.77

Task: I would be grateful if you could share the reported logP for CCc1ccc(OCC(OC(=O)n2ccnc2)C(C)(C)C)cc1 (centres undefined) .
Result: 4.1

Task: I would be grateful if you could share the reported logP for CC(C)(C)C(COc1ccc(Cl)cc1)OC(=O)n1ccnc1 (centres undefined) .
Result: 4.19

Task: I would be grateful if you could share the reported logP for CCOC(=O)c1ccc(OCC(OC(=O)n2ccnc2)C(C)(C)C)cc1 (centres undefined) .
Result: 4.12

Task: I would be grateful if you could share the reported logP for CCCCc1ccc(OCC(OC(=O)n2ccnc2)C(C)(C)C)cc1 (centres undefined) .
Result: 4.97

Task: I would be grateful if you could share the reported logP for CCCOc1ccc(OCC(OC(=S)n2ccnc2)C(C)(C)C)cc1 (centres undefined) .
Result: 5.03

Task: I would be grateful if you could share the reported logP for CC(C)(C)C(COc1ccccc1)OC(=O)n1ccnc1 (centres undefined) .
Result: 3.58

Task: I would be grateful if you could share the reported logP for CCCc1ccc(OCC(OC(=O)n2ccnc2)C(C)(C)C)cc1 (centres undefined) .
Result: 4.73

Task: I would be grateful if you could share the reported logP for Cc1ccc(OCC(OC(=S)n2ccnc2)C(C)(C)C)cc1 (centres undefined) .
Result: 4.66
